Each entry below carries its reported log10(EC50).
system under test: CMV virions
protocol details: virion ELISA
In our notation, the value equals log10 of EC50 in mg/L.

IN: What log10(EC50) value was documented for this binder, 1-125 (antibody, V domains shown) VH: QVQLVESGGGLVKPGGSLRLSCAPAGFNFKDYYMTWIRQAPGKGLEWVSFISSSGQTIYYADSVKGRFTISRDNARNSLYLQMNSLRAEDTAVYYCARDSYSKLVDIVAIEAFDLWGQGTLVSVSS VL: SYELTQPPSVSVAPGKMARITCGGDNIGSKSVHWYQQRPGQAPVLVIRFDTDRPSRIPERFSGSNSGNTATLAISRVEAGDEADYYCQVWDSSSARLVFGGGTKLTVL ?
OUT: 0.15

IN: What log10(EC50) value was documented for this binder, 1-103 (antibody, V domains shown) VH: QLQLQESGPGLVKPSETLSLTCSVSGDAISGSNYYWGWIRQPPGKGLQWIGSIYHTGSTFYNPSFSSRVTLSVDTSKNQFSLKLISVNAADTAVYYCARRIRGYSGTYDWGQGTLVTVSS VL: DIQLTQSPSFLSASVGDRVTITCRASQDISSYVAWYQQKPGNAPKLLISSASTLPSGVPSRFSGSRSGTDFTLTISSLQPEDFATYYCQQLNNFGPGTTVDIK ?
OUT: -0.70

IN: What log10(EC50) value was documented for this binder, 2-18 (antibody, V domains shown) VH: EVQLVQSGGGLVQPGGSLRVSCAASGFSFSDHDMDWVRQAPGKGFEWVGRSRNKDYSSTTEYAASVRGRFTISRHTSEDLLYLELNTVKTEDTAVYFCARGPHHSDRSGYYGGTFDIWGQGTMVTVSS VL: DIQMTQSPSSVSASVGDRVIITCRASQGISSWLAWYQQKPGRAPRLLIYDASTLESGVPSRFSGRGSGTEFTLTINSLQPEDFATYYCQQGNMFPLTFGGGTKVEIK ?
OUT: -1.05

IN: What log10(EC50) value was documented for this binder, 3-16 (antibody, V domains shown) VH: QVQVVQSGAEVKKPGASVMVSCKTSGYRFTIYSIAWMRQAPGQGLEWMGSINTYNGNTKYAEKFQGRVTMSRDTSTSTAYMEVRSLGSADTAMYYCARDAENWGFFDDWGQGTLVTVSS VL: EIVLTQSPGTVSLSPGERVTLSCRASQSVGRHLAWYQQKPGQPPRLLIYGASTRATGVPDRFSGSGSETEFTLAISSLQSEDFALYYCQQYNTWPYTFGQGTKLEIK ?
OUT: -1.00

The record that follows has no log10(EC50) shown yet.
IN: What log10(EC50) value was documented for this binder, 3-7 (antibody, V domains shown) VH: QVQLVQSGAEVKKPGASVKVSCKTSGYTFNTYAISWVRQAPGQGLEWVGWINTYSGSTKYAQKVQGRVTMTTDTSTSTAYMELRGLRSDDTAVYYCARDGYNWGFLDFWGQGSLVTVSS VL: DIQMTQSPSSLSASVGDRVTITCRASQGISNYLAWYQQKPGKLPKLLIYAASTLQSGVPSRFSGSGSGTDFTLTISSLQPEDVASYYCQKYNSAPLTFGPGTKVDIK ?
OUT: -1.15

Values compiled from patent US11230591.
